tested on: Staphylococcus aureus; experiment: Antibacterial activity against Staphylococcus aureus ATCC 6538 incubated for 16 hrs by broth microdilution method; type: functional; details: ATCC 6538, 16 h
Catalogue of MIC readings, one per entry.
Give the value, in units of µg/mL, as a plain number.

Solved entries:
{"SMILES NOTATION": "COc1cc(OC)c(-c2cc(OC)c(Cl)c3c2C(=O)[C@@]2(O)C(=O)c4c(cc(O)c(Cl)c4O)C(C)(C)[C@H]2C3)c(C)c1Cl", "STUDY SYSTEM": "Staphylococcus aureus", "UNITS SYMBOL": "µg/mL", "MIC": 6.25}
{"SMILES NOTATION": "COc1cc(C)c(-c2cc(OC)c(Cl)c3c2C(=O)[C@@]2(O)C(=O)c4c(O)cc(O)cc4C(C)(C)[C@H]2C3)c(OC)c1", "STUDY SYSTEM": "Staphylococcus aureus", "UNITS SYMBOL": "µg/mL", "MIC": 3.13}
{"SMILES NOTATION": "COc1cc(O)c(-c2cc(O)cc3cc4c(c(O)c23)C(=O)c2c(O)cc(O)cc2C4(C)C)c(C)c1Cl", "STUDY SYSTEM": "Staphylococcus aureus", "UNITS SYMBOL": "µg/mL", "MIC": 3.13}
{"SMILES NOTATION": "COc1cc(C)c(-c2cc(OC)c(Cl)c3c2C(=O)[C@@]2(O)C(=O)c4c(O)c(Cl)c(O)c(Cl)c4C(C)(C)[C@H]2C3)c(OC)c1", "STUDY SYSTEM": "Staphylococcus aureus", "UNITS SYMBOL": "µg/mL", "MIC": 0.39}
{"SMILES NOTATION": "COc1cc(C)c(-c2cc(O)c(Cl)c3c2C(=O)[C@@]2(O)C(=O)c4c(O)cc(O)cc4C(C)(C)[C@H]2C3)c(O)c1", "STUDY SYSTEM": "Staphylococcus aureus", "UNITS SYMBOL": "µg/mL", "MIC": 12.5}
{"SMILES NOTATION": "COc1cc(C)c(-c2cc(OC)c(Cl)c3cc4c(c(O)c23)C(=O)c2c(O)cc(O)cc2C4(C)C)c(OC)c1", "STUDY SYSTEM": "Staphylococcus aureus", "UNITS SYMBOL": "µg/mL", "MIC": 3.13}

Now for another entry.
*Q* Using the record for COc1cc(C)c(-c2cc(OC)c(Cl)c3c2C(=O)[C@@]2(O)C(=O)c4c(O)cc(O)c(Cl)c4C(C)(C)[C@H]2C3)c(OC)c1 , report its MIC.
*A* 0.78
